B1: 2M8U (parent)
chain: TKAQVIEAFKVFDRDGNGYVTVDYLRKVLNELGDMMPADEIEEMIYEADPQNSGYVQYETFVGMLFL

Variants of: B1
Experiment Notes: folding stability dG (cDNA display proteolysis); higher = more stable
Experimental Conditions: PBS, room temperature

{"Variant Notation": "D23N", "folding stability dG (kcal/mol)": 3.45}
{"Variant Notation": "E43M", "folding stability dG (kcal/mol)": 3.82}
{"Variant Notation": "M36E", "folding stability dG (kcal/mol)": 2.77}
{"Variant Notation": "V56T", "folding stability dG (kcal/mol)": 2.14}
{"Variant Notation": "V62L", "folding stability dG (kcal/mol)": 2.76}
{"Variant Notation": "R14L", "folding stability dG (kcal/mol)": 3.75}
{"Variant Notation": "M35F", "folding stability dG (kcal/mol)": 3.9}
{"Variant Notation": "R26H", "folding stability dG (kcal/mol)": 3.19}
{"Variant Notation": "L32G", "folding stability dG (kcal/mol)": 2.16}
{"Variant Notation": "G18H", "folding stability dG (kcal/mol)": 2.17}
{"Variant Notation": "Y19H", "folding stability dG (kcal/mol)": 2.94}
{"Variant Notation": "N17D", "folding stability dG (kcal/mol)": 3.44}
{"Variant Notation": "E47G", "folding stability dG (kcal/mol)": 3.5}
{"Variant Notation": "D39G", "folding stability dG (kcal/mol)": 3.77}
{"Variant Notation": "N17P", "folding stability dG (kcal/mol)": 1.86}
{"Variant Notation": "M36R", "folding stability dG (kcal/mol)": 3.6}
{"Variant Notation": "I45Q", "folding stability dG (kcal/mol)": 1.91}
{"Variant Notation": "G33K", "folding stability dG (kcal/mol)": 3.46}
{"Variant Notation": "F9V", "folding stability dG (kcal/mol)": 3.27}
{"Variant Notation": "A8G", "folding stability dG (kcal/mol)": 2.64}
{"Variant Notation": "V22K", "folding stability dG (kcal/mol)": 3.3}
{"Variant Notation": "A8N", "folding stability dG (kcal/mol)": 2.81}
{"Variant Notation": "V22Y", "folding stability dG (kcal/mol)": 3.44}
{"Variant Notation": "T60C", "folding stability dG (kcal/mol)": 3.43}
{"Variant Notation": "D34A", "folding stability dG (kcal/mol)": 3.54}
{"Variant Notation": "S53D", "folding stability dG (kcal/mol)": 3.02}
{"Variant Notation": "T21Q", "folding stability dG (kcal/mol)": 3.7}
{"Variant Notation": "F12G", "folding stability dG (kcal/mol)": 3.5}
{"Variant Notation": "G63T", "folding stability dG (kcal/mol)": 3.77}
{"Variant Notation": "Y19C", "folding stability dG (kcal/mol)": 2.74}
{"Variant Notation": "D34P", "folding stability dG (kcal/mol)": 3.89}
{"Variant Notation": "Y24C", "folding stability dG (kcal/mol)": 4.02}
{"Variant Notation": "A8K", "folding stability dG (kcal/mol)": 3.62}
{"Variant Notation": "V62G", "folding stability dG (kcal/mol)": 1.93}
{"Variant Notation": "P50S", "folding stability dG (kcal/mol)": 3.29}
{"Variant Notation": "A48S", "folding stability dG (kcal/mol)": 3.53}
{"Variant Notation": "M35Y", "folding stability dG (kcal/mol)": 3.33}
{"Variant Notation": "F61R", "folding stability dG (kcal/mol)": 1.29}
{"Variant Notation": "V20E", "folding stability dG (kcal/mol)": 2.16}
{"Variant Notation": "L32R", "folding stability dG (kcal/mol)": 2.6}
{"Variant Notation": "S53F", "folding stability dG (kcal/mol)": 3.16}
{"Variant Notation": "V28W", "folding stability dG (kcal/mol)": 2.77}
{"Variant Notation": "L29I", "folding stability dG (kcal/mol)": 3.53}
{"Variant Notation": "K27N", "folding stability dG (kcal/mol)": 3.12}
{"Variant Notation": "D34C", "folding stability dG (kcal/mol)": 4.32}
{"Variant Notation": "D15E", "folding stability dG (kcal/mol)": 3.55}
{"Variant Notation": "D34Y", "folding stability dG (kcal/mol)": 4.42}
{"Variant Notation": "G16I", "folding stability dG (kcal/mol)": 2.21}
{"Variant Notation": "P50A", "folding stability dG (kcal/mol)": 3.3}
{"Variant Notation": "D23L", "folding stability dG (kcal/mol)": 3.63}
{"Variant Notation": "M36L", "folding stability dG (kcal/mol)": 3.72}
{"Variant Notation": "P50R", "folding stability dG (kcal/mol)": 3.38}
{"Variant Notation": "A48F", "folding stability dG (kcal/mol)": 3.44}
{"Variant Notation": "P37R", "folding stability dG (kcal/mol)": 3.45}
{"Variant Notation": "Y19I", "folding stability dG (kcal/mol)": 3.21}
{"Variant Notation": "A8S", "folding stability dG (kcal/mol)": 3.11}
{"Variant Notation": "N30P", "folding stability dG (kcal/mol)": 2.6}
{"Variant Notation": "A38Q", "folding stability dG (kcal/mol)": 3.69}
{"Variant Notation": "D39N", "folding stability dG (kcal/mol)": 3.68}
{"Variant Notation": "L65E", "folding stability dG (kcal/mol)": 1.82}
{"Variant Notation": "P50V", "folding stability dG (kcal/mol)": 2.99}
{"Variant Notation": "E59H", "folding stability dG (kcal/mol)": 3.24}
{"Variant Notation": "D39W", "folding stability dG (kcal/mol)": 3.65}
{"Variant Notation": "L25E", "folding stability dG (kcal/mol)": 2.09}
{"Variant Notation": "V5R", "folding stability dG (kcal/mol)": 1.91}
{"Variant Notation": "G18A", "folding stability dG (kcal/mol)": 2.63}
{"Variant Notation": "Q57P", "folding stability dG (kcal/mol)": 2.64}
{"Variant Notation": "R26C", "folding stability dG (kcal/mol)": 2.88}
{"Variant Notation": "L65N", "folding stability dG (kcal/mol)": 2.26}
{"Variant Notation": "Y55G", "folding stability dG (kcal/mol)": 2.16}
{"Variant Notation": "F9T", "folding stability dG (kcal/mol)": 2.47}
{"Variant Notation": "F66C", "folding stability dG (kcal/mol)": 2.86}
{"Variant Notation": "E7I", "folding stability dG (kcal/mol)": 3.07}
{"Variant Notation": "I6A", "folding stability dG (kcal/mol)": 2.25}
{"Variant Notation": "D49S", "folding stability dG (kcal/mol)": 2.93}
{"Variant Notation": "T60P", "folding stability dG (kcal/mol)": 3.52}
{"Variant Notation": "F12T", "folding stability dG (kcal/mol)": 2.39}
{"Variant Notation": "Q4W", "folding stability dG (kcal/mol)": 3.08}
{"Variant Notation": "E59Q", "folding stability dG (kcal/mol)": 3.11}
{"Variant Notation": "E47K", "folding stability dG (kcal/mol)": 4.09}
{"Variant Notation": "G63R", "folding stability dG (kcal/mol)": 3.54}
{"Variant Notation": "S53T", "folding stability dG (kcal/mol)": 3.49}
{"Variant Notation": "R26A", "folding stability dG (kcal/mol)": 2.49}
{"Variant Notation": "K2G", "folding stability dG (kcal/mol)": 2.52}
{"Variant Notation": "A8P", "folding stability dG (kcal/mol)": 2.02}
{"Variant Notation": "G18D", "folding stability dG (kcal/mol)": 2.28}
{"Variant Notation": "V11E", "folding stability dG (kcal/mol)": 3.52}
{"Variant Notation": "L25K", "folding stability dG (kcal/mol)": 2.23}
{"Variant Notation": "Q57H", "folding stability dG (kcal/mol)": 3.85}
{"Variant Notation": "V11H", "folding stability dG (kcal/mol)": 3.32}
{"Variant Notation": "M35Q", "folding stability dG (kcal/mol)": 3.09}
